From: patent US11292798B2

assayProcedure: absorption spectrum, light emission spectrum, molecular extinction coefficient and quantum efficiency in solvents
Format: physicochemical
studyConditions: solvent H2O
measuredAttribute: ε (molecular extinction coefficient)

Worked examples follow.
CC1(C)C2=C3C=C(CC(=O)O)C(=O)OC3CCN2c2ccccc21 (stereo not shown) [Compound 63]: 17,000 Lmol^−1cm^−1
COC(=O)C1=CC2=C3N(CCC2OC1=O)c1cc2c(cc1C3(C)C)-c1ccccc1C2(C)C (stereo not shown) [Compound 60]: 38,000 Lmol^−1cm^−1

Lookup: Requested field: ε (molecular extinction coefficient). Item: CCOC(=O)CCCC(=O)C1=CC2=C3N(CCC2OC1=O)c1ccc2ccccc2c1C3(C)C (stereo not shown) [Compound 62]
Found: 26,000 Lmol^−1cm^−1

Lookup: Need ε (molecular extinction coefficient), item CC1(C)C2=C3C=C(C(=O)CCCC(=O)[O-])C(=O)OC3CCN2c2ccc3cc(S(=O)(=O)[O-])ccc3c21.[Na+].[Na+] (stereo not shown) [Compound 16]
Found: 48,000 Lmol^−1cm^−1

###

assayProcedure: absorption spectrum, light emission spectrum, molecular extinction coefficient and quantum efficiency in solvents
Format: physicochemical
studyConditions: solvent EtOH
φ (quantum efficiency): recorded values
// no unit, no text: just the number

Lookup: Name the recorded φ (quantum efficiency) for CC1(C)C2=C3C=C(CC(=O)[O-])C(=O)OC3CCN2c2ccc(S(=O)(=O)[O-])cc21.[Na+].[Na+] (stereo not shown) .
Found: 0.78

Lookup: Which φ (quantum efficiency) value belongs to CC1(C)C2=C3C=C(C(=O)[O-])C(=O)OC3CCN2c2ccccc21.[Na+] (stereo not shown) ?
Found: 0.412

Lookup: Could you tell me which φ (quantum efficiency) is on file for CC1(C)C2=C3C=C(C(=O)CCCC(=O)[O-])C(=O)OC3CCN2c2ccc3cc(S(=O)(=O)[O-])ccc3c21.[Na+].[Na+] (stereo not shown) ?
Found: 0.872

Lookup: Give its φ (quantum efficiency) value. Item: CCOC(=O)CCCC(=O)C1=CC2=C3N(CCC2OC1=O)c1ccc2ccccc2c1C3(C)C (stereo not shown)
Found: 0.820

###

assayProcedure: absorption spectrum, light emission spectrum, molecular extinction coefficient and quantum efficiency in solvents
Type: physicochemical
studyConditions: solvent CH2Cl2
measuredAttribute: λex (nm)
Answer in nm, number only, no unit symbol.

CC1(C)C2=C3C=C(CC(=O)[O-])C(=O)OC3CCN2c2ccc(S(=O)(=O)[O-])cc21.[Na+].[Na+] (centres unmarked): 414
CC1(C)C2=C3C=C(C(=O)[O-])C(=O)OC3CCN2c2ccc(S(=O)(=O)[O-])cc21.[Na+].[Na+] (centres unmarked): 429
CC1(C)C2=C3C=C(C(=O)O)C(=O)OC3CCN2c2cc3c(cc21)-c1ccccc1C3(C)C (centres unmarked): 484

Attention now turns to another entry.
Lookup: Give its λex value. Item: CC1(C)C2=C3C=C(C(=O)CCCC(=O)[O-])C(=O)OC3CCN2c2ccc3cc(S(=O)(=O)[O-])ccc3c21.[Na+].[Na+] (centres unmarked)
Found: 488

###

assayProcedure: absorption spectrum, light emission spectrum, molecular extinction coefficient and quantum efficiency in solvents
Format: physicochemical
studyConditions: solvent PBS
measuredAttribute: φ (quantum efficiency)
Lab note: record the figure alone, no unit after it.

CC1(C)C2=C3C=C(C(=O)CCCC(=O)[O-])C(=O)OC3CCN2c2ccc3cc(S(=O)(=O)[O-])ccc3c21.[Na+].[Na+] (stereo not drawn): 0.417

Now for another entry.
Lookup: Name the recorded φ (quantum efficiency) for CC1(C)C2=C3C=CC(=O)OC3CCN2c2ccc(S(=O)(=O)[O-])cc21.[Na+] (stereo not drawn) .
Found: 0.759
